Give measured %-inhibition of DYRK2 for each item. Keep answers brief.
- targetEntity: panel of more than 300 wild-type and mutant kinases (313 kinase panel) (Homo sapiens)
- testProtocol: Kinase profiling in a biochemical assay panel (mobility shift assays and ELISA), %-inhibition at 1 μM; selectivity entropy
- assaySetup: kinase DYRK2; compound at 1 μM
Give bare numbers, in %.

The cases that follow already have their %-inhibition of DYRK2 on record.
# molecule, %-inhibition of DYRK2, %
data = [
    ("CC(C)(C)c1nc(-c2cccc(NS(=O)(=O)c3c(F)cccc3F)c2F)c(-c2ccnc(N)n2)s1 [dabrafenib]", 6),
    ("CO[C@H]1C[C@@H]2CC[C@@H](C)[C@@](O)(O2)C(=O)C(=O)N2CCCC[C@H]2C(=O)O[C@H]([C@H](C)C[C@@H]2CC[C@@H](OCCO)[C@H](OC)C2)CC(=O)[C@H](C)/C=C(\\C)[C@@H](O)[C@@H](OC)C(=O)[C@H](C)C[C@H](C)/C=C/C=C/C=C/1C [everolimus]", -10),
    ("CNC(=O)c1cc(Oc2ccc(NC(=O)Nc3ccc(Cl)c(C(F)(F)F)c3)c(F)c2)ccn1 [regorafenib]", 2),
    ("O=S(=O)(c1cccc2cnccc12)N1CCCNCC1 [fasudil]", -1.3),
    ("CO[C@H]1C[C@@H]2CC[C@@H](C)[C@@](O)(O2)C(=O)C(=O)N2CCCC[C@H]2C(=O)O[C@H]([C@H](C)C[C@@H]2CC[C@@H](OC(=O)C(C)(CO)CO)[C@H](OC)C2)CC(=O)[C@H](C)/C=C(\\C)[C@@H](O)[C@@H](OC)C(=O)[C@H](C)C[C@H](C)/C=C/C=C/C=C/1C [temsirolimus]", -3.63),
]

For each listed entry, give its %-inhibition of DYRK2.
1. COc1cc2nccc(Oc3ccc(NC(=O)C4(C(=O)Nc5ccc(F)cc5)CC4)cc3)c2cc1OC [cabozantinib]
2. CCCS(=O)(=O)Nc1ccc(F)c(C(=O)c2c[nH]c3ncc(-c4ccc(Cl)cc4)cc23)c1F [vemurafenib]

Result:
1. 17
2. 1

* * *

Give measured %-inhibition of PHKG1 for each item. Keep answers brief.
- targetEntity: panel of more than 300 wild-type and mutant kinases (313 kinase panel) (Homo sapiens)
- testProtocol: Kinase profiling in a biochemical assay panel (mobility shift assays and ELISA), %-inhibition at 1 μM; selectivity entropy
- assaySetup: kinase PHKG1; 1 μM
One number for each entry, in %.

# compound, u, %-inhibition of PHKG1
records = [
    ("CO[C@H]1C[C@@H]2CC[C@@H](C)[C@@](O)(O2)C(=O)C(=O)N2CCCC[C@H]2C(=O)O[C@H]([C@H](C)C[C@@H]2CC[C@@H](OCCO)[C@H](OC)C2)CC(=O)[C@H](C)/C=C(\\C)[C@@H](O)[C@@H](OC)C(=O)[C@H](C)C[C@H](C)/C=C/C=C/C=C/1C [everolimus]", "%", 0.522),
    ("CNC(=O)c1cc(Oc2ccc(NC(=O)Nc3ccc(Cl)c(C(F)(F)F)c3)c(F)c2)ccn1 [regorafenib]", "%", 8),
]

// for each compound in input: emit %-inhibition of PHKG1
1. Cc1ccc(Nc2nccc(N(C)c3ccc4c(C)n(C)nc4c3)n2)cc1S(N)(=O)=O [pazopanib]
2. COc1cc(Nc2c(C#N)cnc3cc(OCCCN4CCN(C)CC4)c(OC)cc23)c(Cl)cc1Cl [bosutinib]
3. Cc1ccc(C(=O)Nc2ccc(CN3CCN(C)CC3)c(C(F)(F)F)c2)cc1C#Cc1cnc2cccnn12 [ponatinib]
4. COc1cc2c(Nc3ccc(Br)cc3F)ncnc2cc1OCC1CCN(C)CC1 [vandetanib]
5. Cc1cn(-c2cc(NC(=O)c3ccc(C)c(Nc4nccc(-c5cccnc5)n4)c3)cc(C(F)(F)F)c2)cn1 [nilotinib]
6. CC(=O)Nc1cccc(-n2c(=O)n(C3CC3)c(=O)c3c(Nc4ccc(I)cc4F)n(C)c(=O)c(C)c32)c1 [trametinib]
7. CCN(CC)CCNC(=O)c1c(C)[nH]c(/C=C2\C(=O)Nc3ccc(F)cc32)c1C [sunitinib]

Result:
1.52
49
5
68
-8
-2.24
95

* * *

I'd appreciate it if you could supply %-inhibition of HIPK2 values for the items below.
- targetEntity: panel of more than 300 wild-type and mutant kinases (313 kinase panel) (Homo sapiens)
- testProtocol: Kinase profiling in a biochemical assay panel (mobility shift assays and ELISA), %-inhibition at 1 μM; selectivity entropy
- assaySetup: kinase HIPK2; compound at 1 μM
One number for each entry, in %.

Below, 3 compounds whose answers are already recorded.
# structureAsSmiles, u, %-inhibition of HIPK2
measured = [
    ("COc1cc2c(Nc3ccc(Br)cc3F)ncnc2cc1OCC1CCN(C)CC1", "%", -11),
    ("CS(=O)(=O)CCNCc1ccc(-c2ccc3ncnc(Nc4ccc(OCc5cccc(F)c5)c(Cl)c4)c3c2)o1", "%", 1.46),
    ("Cc1ccc(Nc2nccc(N(C)c3ccc4c(C)n(C)nc4c3)n2)cc1S(N)(=O)=O", "%", 5.51),
]

Kindly consider the entry below.
Request: Consider the compound `O=S(=O)(c1cccc2cnccc12)N1CCCNCC1` . State its measured %-inhibition of HIPK2.
Result: -1.86

* * *

- targetEntity: panel of more than 300 wild-type and mutant kinases (313 kinase panel) (Homo sapiens, UniProt Q16620)
- testProtocol: Kinase profiling in a biochemical assay panel (mobility shift assays and ELISA), %-inhibition at 1 μM; selectivity entropy
- assaySetup: kinase TRKB; 1 μM
metric: %-inhibition of TRKB (%)
Numbers only, in %.

# structureAsSmiles, u, %-inhibition of TRKB
measured = [
    ("CC(=O)Nc1cccc(-n2c(=O)n(C3CC3)c(=O)c3c(Nc4ccc(I)cc4F)n(C)c(=O)c(C)c32)c1", "%", -3.4),
    ("CO[C@H]1C[C@@H]2CC[C@@H](C)[C@@](O)(O2)C(=O)C(=O)N2CCCC[C@H]2C(=O)O[C@H]([C@H](C)C[C@@H]2CC[C@@H](OC(=O)C(C)(CO)CO)[C@H](OC)C2)CC(=O)[C@H](C)/C=C(\\C)[C@@H](O)[C@@H](OC)C(=O)[C@H](C)C[C@H](C)/C=C/C=C/C=C/1C", "%", 1.08),
]

Request: Respond only with %-inhibition of TRKB recorded for `CC(C)(C)c1nc(-c2cccc(NS(=O)(=O)c3c(F)cccc3F)c2F)c(-c2ccnc(N)n2)s1`
Result: 86

* * *

- targetEntity: panel of more than 300 wild-type and mutant kinases (313 kinase panel) (Homo sapiens, UniProt Q9HBH9)
- testProtocol: Kinase profiling in a biochemical assay panel (mobility shift assays and ELISA), %-inhibition at 1 μM; selectivity entropy
- assaySetup: kinase MNK2; 1 μM
Can you tell me %-inhibition of MNK2 for the items I'm about to list?
Answers are plain numbers, in %.

As a guide, the following entries are already answered.
# structureAsSmiles, %-inhibition of MNK2 (%)
measured = [
    ("Cc1ccc(Nc2nccc(N(C)c3ccc4c(C)n(C)nc4c3)n2)cc1S(N)(=O)=O", 2.27),
    ("CS(=O)(=O)CCNCc1ccc(-c2ccc3ncnc(Nc4ccc(OCc5cccc(F)c5)c(Cl)c4)c3c2)o1", 2.43),
    ("CCCS(=O)(=O)Nc1ccc(F)c(C(=O)c2c[nH]c3ncc(-c4ccc(Cl)cc4)cc23)c1F", 27),
    ("Cc1ccc(C(=O)Nc2ccc(CN3CCN(C)CC3)c(C(F)(F)F)c2)cc1C#Cc1cnc2cccnn12", 97),
    ("CC(=O)Nc1cccc(-n2c(=O)n(C3CC3)c(=O)c3c(Nc4ccc(I)cc4F)n(C)c(=O)c(C)c32)c1", -11),
    ("CO[C@H]1C[C@@H]2CC[C@@H](C)[C@@](O)(O2)C(=O)C(=O)N2CCCC[C@H]2C(=O)O[C@H]([C@H](C)C[C@@H]2CC[C@@H](OCCO)[C@H](OC)C2)CC(=O)[C@H](C)/C=C(\\C)[C@@H](O)[C@@H](OC)C(=O)[C@H](C)C[C@H](C)/C=C/C=C/C=C/1C", 1.88),
    ("CO[C@H]1C[C@@H]2CC[C@@H](C)[C@@](O)(O2)C(=O)C(=O)N2CCCC[C@H]2C(=O)O[C@H]([C@H](C)C[C@@H]2CC[C@@H](OC(=O)C(C)(CO)CO)[C@H](OC)C2)CC(=O)[C@H](C)/C=C(\\C)[C@@H](O)[C@@H](OC)C(=O)[C@H](C)C[C@H](C)/C=C/C=C/C=C/1C", -14),
]

Request: Tell us which %-inhibition of MNK2 value is on record for `Cc1cn(-c2cc(NC(=O)c3ccc(C)c(Nc4nccc(-c5cccnc5)n4)c3)cc(C(F)(F)F)c2)cn1`
Result: 2

* * *

What %-inhibition of TEC was measured for each of the following?
- targetEntity: panel of more than 300 wild-type and mutant kinases (313 kinase panel) (Homo sapiens, UniProt P42680)
- Sequence (P42680 whole entry, change not shown): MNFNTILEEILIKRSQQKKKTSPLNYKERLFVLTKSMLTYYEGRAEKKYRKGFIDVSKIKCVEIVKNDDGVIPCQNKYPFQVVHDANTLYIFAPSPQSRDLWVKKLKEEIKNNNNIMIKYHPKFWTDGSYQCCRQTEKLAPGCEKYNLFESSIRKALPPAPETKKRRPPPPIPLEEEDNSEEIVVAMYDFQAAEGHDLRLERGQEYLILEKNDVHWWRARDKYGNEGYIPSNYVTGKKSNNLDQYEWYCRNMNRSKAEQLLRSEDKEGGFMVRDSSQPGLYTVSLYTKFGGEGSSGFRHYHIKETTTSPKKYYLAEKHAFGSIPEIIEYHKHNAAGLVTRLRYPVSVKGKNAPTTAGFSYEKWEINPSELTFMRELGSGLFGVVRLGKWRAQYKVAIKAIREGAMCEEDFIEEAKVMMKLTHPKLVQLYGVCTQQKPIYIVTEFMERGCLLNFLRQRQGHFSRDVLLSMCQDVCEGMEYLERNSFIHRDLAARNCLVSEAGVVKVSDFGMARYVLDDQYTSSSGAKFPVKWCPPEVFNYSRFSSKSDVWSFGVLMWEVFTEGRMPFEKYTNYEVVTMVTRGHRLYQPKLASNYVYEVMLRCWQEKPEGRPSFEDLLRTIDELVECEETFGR
- testProtocol: Kinase profiling in a biochemical assay panel (mobility shift assays and ELISA), %-inhibition at 1 μM; selectivity entropy
- assaySetup: kinase TEC; 1 μM
One number for each entry, in %.

# structureAsSmiles, %-inhibition of TEC / %
records = [
    ("CNC(=O)c1cc(Oc2ccc(NC(=O)Nc3ccc(Cl)c(C(F)(F)F)c3)c(F)c2)ccn1", -8),
    ("C[C@@H](Oc1cc(-c2cnn(C3CCNCC3)c2)cnc1N)c1c(Cl)ccc(F)c1Cl", 1.53),
    ("O=S(=O)(c1cccc2cnccc12)N1CCCNCC1", -7),
    ("Cc1ccc(Nc2nccc(N(C)c3ccc4c(C)n(C)nc4c3)n2)cc1S(N)(=O)=O", 48),
]

Request: Report measured %-inhibition of TEC; entry is `CO[C@H]1C[C@@H]2CC[C@@H](C)[C@@](O)(O2)C(=O)C(=O)N2CCCC[C@H]2C(=O)O[C@H]([C@H](C)C[C@@H]2CC[C@@H](OCCO)[C@H](OC)C2)CC(=O)[C@H](C)/C=C(\C)[C@@H](O)[C@@H](OC)C(=O)[C@H](C)C[C@H](C)/C=C/C=C/C=C/1C`
Result: -4
